Entry source: patent US8975398B2

molecular target: NAMPT (human, recombinant, C-terminally His-tagged) (Homo sapiens); test: Time-Resolved Fluorescence Resonance Energy Transfer (TR-FRET) Binding Assay of NAMPT; details: 6.8 nM NAMPT, 200 nM probe, equilibrated 3 hours, absence of substrates
Sequence (P43490 whole entry): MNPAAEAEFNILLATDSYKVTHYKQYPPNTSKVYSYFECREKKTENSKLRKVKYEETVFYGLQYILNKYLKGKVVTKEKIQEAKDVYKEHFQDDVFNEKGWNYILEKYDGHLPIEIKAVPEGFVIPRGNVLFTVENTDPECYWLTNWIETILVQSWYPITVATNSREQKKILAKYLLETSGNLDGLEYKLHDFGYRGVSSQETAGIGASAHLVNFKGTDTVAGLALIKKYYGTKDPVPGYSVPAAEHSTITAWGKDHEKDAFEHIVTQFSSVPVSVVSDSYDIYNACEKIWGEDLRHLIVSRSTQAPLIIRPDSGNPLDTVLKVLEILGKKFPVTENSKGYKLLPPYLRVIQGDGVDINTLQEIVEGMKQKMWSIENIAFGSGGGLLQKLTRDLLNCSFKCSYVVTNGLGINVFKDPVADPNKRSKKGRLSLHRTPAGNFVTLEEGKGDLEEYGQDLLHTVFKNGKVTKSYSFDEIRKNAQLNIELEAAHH
pIC50: −log10 of the molar value.
Think of 7 as a floor: if pIC50 stands on it or above, it is yes (1); beneath it, no (0).

q: Please tell me: is the compound O=C(Nc1ccc(C2CCN(C(=O)CC3CCCC3)CC2)cc1)[C@H]1CCN(c2ccnnc2)C1 at or over 7 in terms of pIC50?
a: no (0)

q: hey, is pIC50 for this one >= 7? O=C(Nc1ccc(C2CCN(C(=O)c3cccc(O)c3)CC2)cc1)C1CN(c2cccnn2)C1
a: yes (1)

q: Determine whether measured pIC50 meets or exceeds 7 for CC(C)CN1CCC(c2ccc(NC(=O)C3CN(c4cccnc4)C3)cc2)CC1
a: no (0)

q: Could you please find out whether CC(=O)N1CCC(Oc2ccc(NC(=O)C3CN(c4ccnnc4)C3)cc2)CC1 has pIC50 that meets 7 or exceeds it?
a: no (0)

q: Given CC(C)C(=O)N1CCC(c2ccc(NC(=O)C3CN(c4cccnn4)C3)cc2)CC1 , state whether its pIC50 is at least 7.
a: yes (1)

q: # check: pIC50 of COCC(=O)N1CCC(c2ccc(NC(=O)C3CN(c4cccnc4C)C3)cc2)CC1 is greater than or equal to 7
a: no (0)

q: Does the reported pIC50 for CC(C)C(C)C(=O)N1CCC(c2ccc(NC(=O)C3CN(c4cccnc4)C3)cc2)CC1 (stereo not shown) fall at or above the 7 mark?
a: yes (1)

q: pIC50 >= 7 for CC(C)CCC(=O)N1CC(Oc2ccc(NC(=O)C3CN(c4ccnnc4)C3)cc2)C1 ?
a: yes (1)

q: Is pIC50 for O=C(Nc1ccc(OC2CN(C(=O)C(F)(F)c3ccccc3)C2)cc1)C1CN(c2ccnnc2)C1 at or above 7?
a: yes (1)

q: Decide: pIC50 of O=C(Nc1ccc(OC2CCN(C(=O)Cc3cc(F)cc(F)c3)CC2)cc1)C1CN(c2ccnnc2)C1 >= 7?
a: yes (1)

q: Check the entry O=C(Nc1ccc(C2CCN(C(=O)CC(F)(F)F)CC2)cc1)C1CN(c2cccnn2)C1 : does pIC50 equal or exceed 7?
a: yes (1)

q: Given the entry O=C(Nc1ccc(OC2CCN(CCC3CC3)CC2)cc1)C1CN(c2cccnc2)C1 , answer whether its pIC50 meets or surpasses 7.
a: no (0)

q: Answer whether pIC50 of O=C(Nc1ccc(OC2CCN(C(=O)Cc3ccc(C(F)(F)F)cc3)CC2)cc1)C1CN(c2cccnn2)C1 is greater than or equal to 7.
a: no (0)
